Examples of binders with documented Neut IC50 subtype B follow.
- assay_system: RSV F protein of subtype B (18537) on recombinant mKate-RSV (respiratory syncytial virus subtype B …, UniProt P13843 26-574)
- assay_method_text: cell-based or functional assay
quantity: Neut IC50 subtype B (µg/mL)

binder="ADI-18987 (antibody, V domains shown) VH: QVQLVQSGAEVKKPGSSVKVSCKASGGTFSGHAINWVRQAPGQGLEWMGGIIHIFGTVNYAPKFQGRVTITADASTGTVYMELSSLISEDTAVYYCARDAYEVWTGSYLPPFDDWGQGTLVTVSS VL: DIVMTQSPGTLSLSPGDRVTLSCRASQTVTSSYLAWYQQKPGQAPRLLIYGAFTRATGIPDRFSGSGSGTDFTLSISRLEPEDFAVYYCQQYGSSFLTFGGGTKVDIK" value_modifier== number=0.027
binder="ADI-18998 (antibody, V domains shown, full-length IgG; also called Antibody Number 346) VH: EVQLLESGPGLVKPSQTLSLTCTVSGGSINSIDYYWSWIRQPPGKGLEWIGYIYHSGSTHYRPSLKSRVTISLDKAKNEFSLSLTSVTAADTAVYFCASGPVGMATSNWFDPWGQGTLVTVSS VL: QPVLTQPPSVSVTPGETARLPCEGDIVVTNSVHWYQQKPGQAPVLVVYYDSDRASGIPERFSGSNSGNTATLSISRVEAGDEADYYCQVWDSSTDHHVVFGGGTKLTVL" value_modifier== number=0.458
binder="ADI-19008 (antibody, V domains shown) VH: EVQLVESGGGVVQPGRSLRLSCVASGFSFSAYGMHWVRQVPTKGLEWVAVISYDGRDIYYTDSVKGRFTISRDNSKNMLYLQMNSLRPEDRAVYYCARDPSLGYNNHYFDYWGQGTLVTVSS VL: EIVLTQSPATLSLSPGETATLSCRASQSVTGNLAWYQQKPGQAPRLLIYAASNRATGIPARFSGSGSGTDFTLTISSLEPEDFAVYFCQQRSNWPPMYSFGQGTKLEIK" value_modifier=> number=10
binder="ADI-18993 (antibody, V domains shown) VH: EVQLVESGGGLVKPGGSLRLSCAASGFTLSSYAMNWVRQAPGKGLEWVSSISAGSSYIDYADSVKGRFTISRDNAKNSLYLQMNNLRAEDTALYYCAREVLPATAIGGAWLDPWGQGTLVTVSS VL: QSVLTQPPSVSGAPGQTVTISCTGSSSNIGAGYDVHWYRQLPGTAPKLLIYSNNNRPSGVPDRFSGSKSDTSASLAITGLQAGDEADYYCQSYDISLSASYVFGTGTKVTVL" value_modifier== number=0.128
binder="ADI-18982 (antibody, V domains shown, full-length IgG; also called Antibody Number 330) VH: QVQLVQSGAEVKKPGASVKVSCKASGYIFTSYGVSWVRQAPGQGLKWMGWISGYNGNTNYDQKLQGRVTMTTDTSTSTAYMELRSLTSDDTAVYYCARDSFSETGTGFPDFWGQGTLVTVSS VL: DIQMTQSPLSLPVTLGQPASISCRSSQSLEYSDGNTYLNWFQQRPGQSPRRLIYKVSNRDSGVPDRFSGSGSGTDFTLKISRVEAEDVGVYYCMQATHRPRTFGQGTKLEIK" value_modifier== number=0.053
